# measured_target: Tyk2-JH1JH2 (Homo sapiens (Human), UniProt P29597, C1142A/C936A)
# Sequence (P29597 580-1182 C936A/C1142A): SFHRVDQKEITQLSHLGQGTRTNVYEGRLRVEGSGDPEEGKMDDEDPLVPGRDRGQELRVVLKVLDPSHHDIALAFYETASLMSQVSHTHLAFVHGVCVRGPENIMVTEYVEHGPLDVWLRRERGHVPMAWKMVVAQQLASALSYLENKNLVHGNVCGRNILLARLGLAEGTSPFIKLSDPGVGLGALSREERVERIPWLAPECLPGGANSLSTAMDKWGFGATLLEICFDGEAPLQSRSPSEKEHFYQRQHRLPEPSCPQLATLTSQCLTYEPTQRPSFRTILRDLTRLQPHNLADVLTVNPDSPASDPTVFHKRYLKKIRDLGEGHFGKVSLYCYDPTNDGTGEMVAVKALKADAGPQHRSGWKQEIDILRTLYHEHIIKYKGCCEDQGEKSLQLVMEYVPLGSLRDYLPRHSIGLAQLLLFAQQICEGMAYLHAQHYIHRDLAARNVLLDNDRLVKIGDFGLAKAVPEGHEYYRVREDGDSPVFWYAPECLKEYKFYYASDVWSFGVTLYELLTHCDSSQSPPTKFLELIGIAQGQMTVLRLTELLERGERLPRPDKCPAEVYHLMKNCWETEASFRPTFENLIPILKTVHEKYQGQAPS
# test_details: Enzymatic inhibition assay (RapidFire HTMS), Tyk2
# measurement_context: 50 μM ATP, 200 μM substrate
# Source text: LC/MS grade Water and Acetonitrile (ACN), were purchased from HoneyWell, Burdick & Jackson (Muskegon, Mich., USA). Dimethylsulfoxide 99.8% (DMSO) and Trifluoroacetic Acid 99.5% (TFA) were purchased from EMD Chemical (Gibbstown, N.J., USA). Adenosine triphosphate (ATP), 4-Morpholinepropanesulfonic acid (MOPS), Magnesium chloride (MgCl2), ethylenediaminetetraacetic acid (EDTA), dithiothreitol (DTT), formic acid >95% (FA) and Tween-20 were purchased from Sigma (St Louis, Mo., USA). […]
pIC50: −log10 of the molar value.
Binary call on pIC50: t from 8 upward, f beneath that.

[[record]]
compound = "Cc1nc(C)c(-c2nc3cnc4[nH]ccc4c3n2[C@H]2CC[C@H](CC#N)CC2)o1"
cat = "f"

[[record]]
compound = "[H]/N=C(/c1ccccc1)N(O)Cc1nc2cnc3[nH]ccc3c2n1[C@H]1CC[C@H](CC#N)CC1 [Ex. 17B]"
cat = "t"

[[record]]
compound = "N#CC[C@H]1CC[C@H](n2c(C(=O)N3CCC(C#N)CC3)nc3cnc4[nH]ccc4c32)CC1"
cat = "f"

[[record]]
compound = "N#CC[C@H]1CC[C@H](n2c(CC(N)=O)nc3cnc4[nH]ccc4c32)CC1"
cat = "t"

[[record]]
compound = "CNC(=O)Cc1nc2cnc3[nH]ccc3c2n1[C@H]1CC[C@H](CC#N)CC1"
cat = "t"

[[record]]
compound = "COCC/C(N)=N/OCc1nc2cnc3[nH]ccc3c2n1[C@H]1CC[C@H](CC#N)CC1"
cat = "f"

[[record]]
compound = "[H]/N=C(\\c1ccccc1)N(O)Cc1nc2cnc3[nH]ccc3c2n1[C@H]1CC[C@H](CC#N)CC1 [Ex. 17A]"
cat = "t"

[[record]]
compound = "N#CCCNC(=O)c1nc2cnc3[nH]ccc3c2n1[C@H]1CC[C@H](CC#N)CC1"
cat = "f"


[in] Entry N#CC[C@H]1CC[C@H](n2c(CNC(=N)c3ccccc3)nc3cnc4[nH]ccc4c32)CC1 : is its pIC50 no less than 8?
[out] t

###

# measured_target: Tyk2-JH1JH2 (Homo sapiens (Human), UniProt P29597, C1142A/C936A)
# test_details: Enzymatic inhibition assay (RapidFire HTMS), Tyk2
# measurement_context: 50 μM ATP, 200 μM substrate
measured_metric: IC50 (nM)
Give bare numbers, in nM.

Give IC50 for each listed item.
1. CCOP(=O)(Cc1ccc(NC(=O)Cc2nc3cnc4[nH]ccc4c3n2[C@H]2CC[C@H](CC#N)CC2)cc1)OCC [Ex. 108]
2. N#CC[C@H]1CC[C@H](n2c(CO/N=C(\N)C3CC3)nc3cnc4[nH]ccc4c32)CC1 [Ex. 151]
3. N#CC[C@H]1CC[C@H](n2c(C(=O)N3CCOCC3)nc3cnc4[nH]ccc4c32)CC1 [Ex. 180]
4. CC(C)(O)CN1CCC(c2nc3cnc4[nH]ccc4c3n2[C@H]2CC[C@H](CC#N)CC2)CC1 [Ex. 168]
5. N#CC[C@H]1CC[C@H](n2c(CC(=O)NC3CCCCC3)nc3cnc4[nH]ccc4c32)CC1 [Ex. 28]
6. N#CC[C@H]1CC[C@H](NC(=O)Cc2nc3cnc4[nH]ccc4c3n2[C@H]2CC[C@H](CC#N)CC2)CC1 [Ex. 19]
7. CC(C)(C)CNC(=O)Cc1nc2cnc3[nH]ccc3c2n1[C@H]1CC[C@H](CC#N)CC1 [Ex. 44]

[out]
1. 7.1
2. 37.1
3. 129
4. 30.7
5. 3.5
6. 4.4
7. 6

Dear reader, for each entry below, please note its IC50.
1. N#CC[C@H]1CC[C@H](n2c(-c3cccnc3N)nc3cnc4[nH]ccc4c32)CC1 [Ex. 186]
2. N#CC[C@H]1CC[C@H](n2c(Cn3c(-c4ccccc4)noc3=O)nc3cnc4[nH]ccc4c32)CC1 [Ex. 203]
3. CNC(=O)Cc1nc2cnc3[nH]ccc3c2n1C12CCC(CC#N)(CC1)CC2 [Ex. 209]
4. N#CC[C@H]1CC[C@H](n2c(C3NC(C4CC4)=NO3)nc3cnc4[nH]ccc4c32)CC1 (some centres unmarked) [Ex. 140]
5. N#CC[C@H]1CC[C@H](n2c(CO/N=C(\N)c3ccccc3)nc3cnc4[nH]ccc4c32)CC1 [Ex. 124]

[out]
[254, 41.5, 651, 14.9, 18.1]

For each of the molecules below, state IC50.
1. N#CC[C@H]1CC[C@H](n2c(-c3cocn3)nc3cnc4[nH]ccc4c32)CC1 [Ex. 11]
2. N#CC[C@H]1CC[C@H](n2c(C(=O)N3CCC(O)CC3)nc3cnc4[nH]ccc4c32)CC1 [Ex. 181]
3. CC1CC(C)CC(NC(=O)Cc2nc3cnc4[nH]ccc4c3n2[C@H]2CC[C@H](CC#N)CC2)C1 (some centres unmarked) [Ex. 75]
4. N#CC[C@H]1CC[C@H](n2c(CNC(=O)c3ccc(C#N)cc3)nc3cnc4[nH]ccc4c32)CC1 [Ex. 82]

[out]
1.2
159
9.2
5.2

Please supply IC50 for each of the following items, keeping them in order.
1. CC(C)(O)Cn1cc(-c2nc3cnc4[nH]ccc4c3n2[C@H]2CC[C@H](CC#N)CC2)cn1 [Ex. 187]
2. COC1CCN(C(=O)c2nc3cnc4[nH]ccc4c3n2[C@H]2CC[C@H](CC#N)CC2)CC1 [Ex. 176]
3. N#CCCS(=O)(=O)NCc1nc2cnc3[nH]ccc3c2n1[C@H]1CC[C@H](CC#N)CC1 [Ex. 13]
4. COCCOCCOCc1nc2cnc3[nH]ccc3c2n1[C@H]1CC[C@H](CC#N)CC1 [Ex. 194]
5. N#CC[C@H]1CC[C@H](n2c(CC(=O)N3CCC[C@H]3CO)nc3cnc4[nH]ccc4c32)CC1 [Ex. 195]
6. COCc1nc2cnc3[nH]ccc3c2n1[C@H]1CC[C@H](CC#N)CC1 [Ex. 113]
7. N#CC[C@H]1CC[C@H](n2c(CC(=O)N[C@H]3CC[C@@H](O)CC3)nc3cnc4[nH]ccc4c32)CC1 [Ex. 47]

[out]
1: 60; 2: 127; 3: 3.3; 4: 72.5; 5: 11; 6: 11.2; 7: 5.1

Provide the reported IC50 of each entry below, same order.
1. CS(C)(=O)=NCc1nc2cnc3[nH]ccc3c2n1[C@H]1CC[C@H](CC#N)CC1 [Ex. 142]
2. N#CCC12CCC(NC(=O)Cc3nc4cnc5[nH]ccc5c4n3[C@H]3CC[C@H](CC#N)CC3)(CC1)C2 [Ex. 55]
3. C#Cc1ccc(C(=O)c2ccc(CCc3nc4cnc5[nH]ccc5c4n3[C@H]3CC[C@H](CC#N)CC3)cc2)cc1 [Ex. 170]
4. N#CC[C@H]1CC[C@H](n2c(CNC(=O)CC3CC3)nc3cnc4[nH]ccc4c32)CC1 [Ex. 94]
5. N#CC[C@H]1CC[C@H](n2c(C(=O)NC3CCOCC3)nc3cnc4[nH]ccc4c32)CC1 [Ex. 178]

[out]
1: 6.9; 2: 4.7; 3: 26.4; 4: 12.1; 5: 42.2

Each molecule below has a reported value. Please supply its IC50.
1. C#Cc1ccc(C(=O)c2ccc(-c3nc4cnc5[nH]ccc5c4n3[C@H]3CC[C@H](CC#N)CC3)cc2)cc1 [Ex. 169]
2. CC(C)(C#N)CNC(=O)Cc1nc2cnc3[nH]ccc3c2n1[C@H]1CC[C@H](CC#N)CC1 [Ex. 22]
3. N#CC[C@H]1CC[C@H](n2c(CC(=O)NCCO)nc3cnc4[nH]ccc4c32)CC1 [Ex. 29]
4. CN1CCC(NC(=O)Cc2nc3cnc4[nH]ccc4c3n2[C@H]2CC[C@H](CC#N)CC2)CC1 [Ex. 66]

[out]
1: 104; 2: 4.1; 3: 3.8; 4: 2.8

###

# measured_target: JAK1-JH1JH2 (Homo sapiens (Human))
# Sequence (P23458 574-1154): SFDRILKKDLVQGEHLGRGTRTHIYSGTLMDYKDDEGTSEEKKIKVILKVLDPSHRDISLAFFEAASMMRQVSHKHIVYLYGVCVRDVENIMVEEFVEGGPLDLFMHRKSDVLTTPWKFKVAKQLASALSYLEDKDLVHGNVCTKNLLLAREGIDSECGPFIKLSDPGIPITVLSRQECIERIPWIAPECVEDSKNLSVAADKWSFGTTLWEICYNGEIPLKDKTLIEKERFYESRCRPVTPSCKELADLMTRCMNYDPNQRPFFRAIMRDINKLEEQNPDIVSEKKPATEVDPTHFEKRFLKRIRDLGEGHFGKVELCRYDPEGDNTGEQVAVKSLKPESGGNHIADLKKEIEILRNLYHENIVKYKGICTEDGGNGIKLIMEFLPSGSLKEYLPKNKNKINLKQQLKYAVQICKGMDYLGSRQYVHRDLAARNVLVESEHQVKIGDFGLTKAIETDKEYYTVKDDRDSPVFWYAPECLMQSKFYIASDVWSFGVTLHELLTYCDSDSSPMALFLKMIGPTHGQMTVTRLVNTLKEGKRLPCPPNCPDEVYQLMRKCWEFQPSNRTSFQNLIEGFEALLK
measured_metric: IC50 (nM)
Numbers only, in nM.

Reference set, count: 2
[[record]]
compound_structure = "N#CC[C@H]1CC[C@H](n2c(CNS(=O)(=O)c3ccccc3)nc3cnc4[nH]ccc4c32)CC1"
measured_metric = "IC50"
display_unit = "nM"
numeric_result = 0.4

[[record]]
compound_structure = "N#CC[C@H]1CC[C@H](n2c(CO/N=C(\\N)CC3CC3)nc3cnc4[nH]ccc4c32)CC1"
measured_metric = "IC50"
display_unit = "nM"
numeric_result = 0.6


# batch size: 3; output IC50 per entry
1. C#Cc1ccc(C(=O)c2ccc(CCc3nc4cnc5[nH]ccc5c4n3[C@H]3CC[C@H](CC#N)CC3)cc2)cc1
2. N#CC[C@H]1CC[C@H](n2c(CC(=O)N[C@H]3C[C@H](O)C3)nc3cnc4[nH]ccc4c32)CC1
3. N#CC[C@H]1CC[C@H](n2c(-c3cnc(N)nc3)nc3cnc4[nH]ccc4c32)CC1

[out]
1. 1.5
2. 0.2
3. 0.2

Answer for every listed entry: what is its IC50? The entries follow.
1. N#CC[C@H]1CC[C@H](n2c(CC(=O)N3CCC(O)CC3)nc3cnc4[nH]ccc4c32)CC1
2. N#CC[C@H]1CC[C@H](n2c(C(=O)NCC3(O)COC3)nc3cnc4[nH]ccc4c32)CC1
3. N#CC[C@H]1CC[C@H](n2c(CNS(=O)(=O)C3CCCCC3)nc3cnc4[nH]ccc4c32)CC1
4. C[Si](C)(C)[C@H]1CC[C@H](NC(=O)Cc2nc3cnc4[nH]ccc4c3n2[C@H]2CC[C@H](CC#N)CC2)CC1

[out]
1. 0.1
2. 0.4
3. 0.9
4. 1.9

Value source: patent US10981911B2
